testDescription: Ratio of unbound drug concentration in Wistar rat brain to plasma at 1 mg/kg, po measured after 1 hr by LC-tandem MS analysis
Type: ADME, organism-based
studyConditions: read-out: K(p,uu,brain)
testReadout: Kp uu at 1 h

P: Cc1cccc(C(=O)N2CCOC[C@H]2Cc2cccc(-n3nccn3)c2)c1-n1nccn1
Q: Cc1ccc(C(=O)N2CCOC[C@H]2Cc2cccc(-n3nccn3)c2)c(-n2nccn2)c1
R: Cc1ccc(-n2nccn2)c(C(=O)N2CCOC[C@H]2Cc2cccc(-n3nccn3)c2)c1
Re-order the entries listed above so their Kp uu at 1 h values fall from first to last. Quick reminder: the answer is the labels in the order asked.
Q, P, R

###

testDescription: in vitro
studyConditions: human, liver microsomes
testReadout: microsomal CLint at 1 µM (µL/min/mg)

INSERT INTO measurements (compound, testreadout, endpointresult) VALUES
  ('COc1ccc(-n2nccn2)c(C(=O)N2CCOC[C@H]2Cc2cccc(-n3nccn3)c2)c1', 'microsomal CLint at 1 µM', 121),
  ('Cc1cccc(C(=O)N2CCOC[C@H]2Cc2cccc(-n3nccn3)c2)c1-n1nccn1', 'microsomal CLint at 1 µM', 204),
  ('COc1ccc(C(=O)N2CCOC[C@H]2Cc2cccc(-n3nccn3)c2)c(-n2nccn2)c1', 'microsomal CLint at 1 µM', 157),
  ('O=C(c1ccccc1-n1nccn1)N1CCOC[C@H]1Cc1cccc(-n2nccn2)c1', 'microsomal CLint at 1 µM', 59),
  ('Cc1ccc(C(=O)N2C[C@H](C)OC[C@H]2Cc2cccc(-n3nccn3)c2)c(-n2nccn2)c1', 'microsomal CLint at 1 µM', 322),
  ('Cc1ccc(C(=O)N2CCOC[C@H]2Cc2cc(F)cc(-n3nccn3)c2)c(-n2nccn2)c1', 'microsomal CLint at 1 µM', 164),
  ('Cc1ccc(-n2nccn2)c(C(=O)N2CCOC[C@H]2Cc2cccc(-n3nccn3)c2)c1', 'microsomal CLint at 1 µM', 119),
  ('Cc1ccc(C(=O)N2CCOC[C@H]2Cc2ccc(C)c(-n3nccn3)c2)c(-n2nccn2)c1', 'microsomal CLint at 1 µM', 391);

P: Cc1ccc(C(=O)N2C[C@@H](C)OC[C@H]2Cc2cccc(-n3nccn3)c2)c(-n2nccn2)c1
Q: Cc1ccc(C(=O)N2CCOC[C@H]2Cc2cccc(-n3nccn3)c2)c(-n2nccn2)c1C
Between P and Q , which one has the lower reported microsomal CLint at 1 µM value? State the label of the item chosen.
P
(P: 139 µL/min/mg, Q: 292 µL/min/mg)

a: Cc1ccc(C(=O)N2CCOC[C@H]2Cc2cccc(-n3nccn3)c2F)c(-n2nccn2)c1
b: Cc1ccc(C(=O)N2CCOC[C@H]2Cc2cc(Cl)cc(-n3nccn3)c2)c(-n2nccn2)c1
c: Cc1ccc(C(=O)N2[C@H](Cc3cccc(-n4nccn4)c3)COC[C@H]2C)c(-n2nccn2)c1
d: Cc1ccc(C(=O)N2CCO[C@H](C)[C@H]2Cc2cccc(-n3nccn3)c2)c(-n2nccn2)c1
In this exercise, place the 4 compounds in ascending sequence of their recorded microsomal CLint at 1 µM. Quick reminder: the answer is the labels in the order asked.
b, a, d, c

A: Cc1ccc(C(=O)N2[C@H](Cc3cccc(-n4nccn4)c3)COC[C@@H]2C)c(-n2nccn2)c1
B: Cc1ccc(C(=O)N2CCOC[C@H]2Cc2cccc(-n3nccn3)c2)c(-n2nccn2)c1 [NIVASOREXANT]
C: O=C(c1cccc(F)c1-n1nccn1)N1CCOC[C@H]1Cc1cccc(-n2nccn2)c1
Rank by microsomal CLint at 1 µM (largest to smallest). Quick reminder: the answer is the labels in the order asked.
A, B, C
(A: 239 µL/min/mg, B: 156 µL/min/mg, C: 104 µL/min/mg)

I: Cc1ccc(-n2nccn2)c(C(=O)N2CCCC[C@H]2Cc2cccc(-n3nccn3)c2)c1
II: Cc1ccc(C(=O)N2CCOC[C@H]2Cc2cc(-n3nccn3)ccc2Cl)c(-n2nccn2)c1
III: O=C(c1ccc(F)cc1-n1nccn1)N1CCOC[C@H]1Cc1cccc(-n2nccn2)c1
IV: Cc1ccc(C(=O)N2CCO[C@@H](C)[C@H]2Cc2cccc(-n3nccn3)c2)c(-n2nccn2)c1
V: O=C(c1cc(F)ccc1-n1nccn1)N1CCOC[C@H]1Cc1cccc(-n2nccn2)c1
Rank by microsomal CLint at 1 µM (largest to smallest). Quick reminder: the answer is the labels in the order asked.
I, IV, V, II, III
(I: 634 µL/min/mg, IV: 327 µL/min/mg, V: 227 µL/min/mg, II: 158 µL/min/mg, III: 101 µL/min/mg)

1: Cc1ccc(C(=O)N2CCOC[C@H]2Cc2cc(-n3nccn3)ccc2F)c(-n2nccn2)c1
2: Cc1ccc(C(=O)N2CCOC[C@H]2Cc2cc(-n3nccn3)ccc2C)c(-n2nccn2)c1
Sorting by microsomal CLint at 1 µM in descending order, would 1 or 2 appear first? State the label of the item chosen.
2
(2: 208 µL/min/mg, 1: 99 µL/min/mg)
